# experiment.description: Apparent oral clearance in female cynomolgus monkey at 150 mg/kg, po BID measured on day 8
# Format: ADME, organism-based, Macaca fascicularis
# study.conditions: in vivo
property.name: CL/F
The reply should consist of the numeric value with the unit placed after it.

IN: # query: CL/F of entry Cn1cc(C[C@@H](N)C(=O)O)c2ccccc21
OUT: 17.6 mL/min/kg

====

# experiment.description: AUC (0 to 24 hrs) in male cynomolgus monkey at 75 mg/kg, po BID measured on day 8
# Assay type: ADME, organism-based, Macaca fascicularis
# Design: time < 24 hr, route oral, dose 75 mg/kg
# study.conditions: in vivo
property.name: AUC at 24 h (µM·h)
Note: unit µM·h is implicit; provide only the numeric part.

IN: # query: AUC at 24 h of entry CCOC(=O)[C@@H](Cc1cn(C)c2ccccc12)NC(=O)[C@@H](N)CC(C)C.Cl
OUT: 177

====

# experiment.description: Tmax in male cynomolgus monkey at 75 mg/kg, po measured on day 1
# Assay type: ADME, organism-based, Macaca fascicularis
# study.conditions: in vivo
property.name: Tmax (h)
Note: unit h is implicit; provide only the numeric part.

IN: # query: Tmax of entry Cn1cc(C[C@@H](N)C(=O)O)c2ccccc21 [INDOXIMOD]
OUT: 2

====

Listed below: Tmax values for each entry.
# experiment.description: Tmax in male cynomolgus monkey at 225 mg/kg, po measured on day 1
# Assay type: ADME, organism-based, Macaca fascicularis
# study.conditions: in vivo
Note: unit h is implicit; provide only the numeric part.

1) CC(C)C[C@H](N)C(=O)N[C@H](Cc1cn(C)c2ccccc12)C(=O)O = 2
2) Cn1cc(C[C@@H](N)C(=O)O)c2ccccc21 [INDOXIMOD] = 2

Turning to the following compound.
IN: # query: Tmax of entry CCOC(=O)[C@@H](Cc1cn(C)c2ccccc12)NC(=O)[C@@H](N)CC(C)C.Cl
OUT: 3

====

# experiment.description: Protein binding in Beagle dog plasma
# Type: ADME, cell-free, Canis lupus familiaris
# study.conditions: read-out: PPB
property.name: fraction unbound
Please reply with the number alone, leaving off any unit.

IN: # query: fraction unbound of entry CCOC(=O)[C@@H](Cc1cn(C)c2ccccc12)NC(=O)[C@@H](N)CC(C)C.Cl
OUT: 0.5

====

Listed below: remaining at 1.5 h, 5 µM values for each entry.
# experiment.description: Chemical stability of compound in simulated gastric fluid assessed as compound remaining at 5 uM measured after 1.5 hrs by LC-MS/MS analysis
# Type: ADME, physicochemical
# study.conditions: read-out: Stabilty
Note: unit % is implicit; provide only the numeric part.

Here is how some compounds turned out for remaining at 1.5 h, 5 µM.
1. Cl.Cn1cc(C[C@@H](N)C(=O)OCC(N)C(=O)O)c2ccccc21 (single isomer, unassigned) = 56
2. Cl.Cn1cc(C[C@@H](NC(=O)[C@@H](N)CCCCN)C(=O)O)c2ccccc21 = 97
3. CN(C)CCOC(=O)[C@H](N)Cc1cn(C)c2ccccc12.Cl = 2
4. Cl.Cn1cc(C[C@@H](N)C(=O)OCC2CCNCC2)c2ccccc21 = 75
5. CC(C)C(NC(=O)[C@H](N)Cc1cn(C)c2ccccc12)C(=O)O.Cl (single isomer, unassigned) = 54
6. Cl.Cn1cc(C[C@@H](NC(=O)[C@@H](N)Cc2ccccc2)C(=O)O)c2ccccc21 = 79
7. CCOC(=O)[C@@H](Cc1cn(C)c2ccccc12)NC(=O)[C@@H](N)CCC(N)=O.Cl = 108
8. Cl.Cn1cc(C[C@@H](NC(=O)[C@@H](N)CCC(=O)O)C(=O)O)c2ccccc21 = 90

Turning to the following compound.
IN: # query: remaining at 1.5 h, 5 µM of entry CCOC(=O)[C@@H](Cc1cn(C)c2ccccc12)NC(=O)[C@@H](N)CC(C)C.Cl
OUT: 92
